- TEST: Cell Viability - LYMP2-015 (AID 971);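 note: cells exposed to compound for 24 h; nearly all actives have a fitted effect of over 55% in size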
- ASSAY_CONDITIONS: LYMP2-015 lymphoblastoid cell viability; series mostly up to 92.2 µM
Results filed as inconclusive are left out. Activity calls are given as the source filed them. Calls come from the whole dose curve; as a rule, active = well fitted cell-killing curve with a large enough effect; inconclusive = small, poorly fitted or top-dose-only effect; inactive = flat fitted curve, though single readings scatter.
# valid calls are active, inactive; nothing else

Answered cases to consult:
>>> print(df.to_string())
                                   molecule  classification
0  CN1[C@H]2CC(OC(=O)[C@H](CO)c3ccccc3)C[C@H]1[C@H]1O[C@H]12 (stereo partly drawn)        inactive
1  O=[N+]([O-])c1cc([N+](=O)[O-])c2ccc(S(=O)(=O)O)cc2c1O        inactive
2  CCCCCCCC[N+](CCCCCCCC)(CCCCCCCC)CCCCCCCC          active
3      c1ccc2c(c1)ccc1cc3c(ccc4ccccc43)cc12        inactive
4                            C=C(C)c1ccccc1        inactive

Query: Status in this test for `CC(=O)Nc1ccc(C(=O)CCl)cc1` ?
Result: active

Query: How did this test come out for `Cc1cccc(O)c1C` ?
Result: inactive

Query: For `O=Cc1ccc(Cl)c(Cl)c1` , what call appears in the results of this test?
Result: inactive

====

Recorded activity, negative = inhibition values for a group of molecules are listed next.
- TEST: Stat Signaling Pathway (AID 446);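 note: ME-180 cervical cancer cells given 40 pM IL-6 alongside compound; SIE-controlled beta-lactamase reporter measured as 460/530 nm FRET emission ratio; % is set by controls: 0 for no effect and ±100 for the full control effect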
- ASSAY_CONDITIONS: ME-180 (cervical carcinoma) SIE beta-lactamase reporter, IL-6 stimulated, 5 h; at 17.2 µM (top of the series) unless noted
Results filed as inconclusive are left out. The source made the active and inactive calls. Calls follow the shape of the dose curve; as a rule, active = well fitted curve in either direction with a large enough effect (not every such curve was filed as active); inconclusive = small, poorly fitted or top-dose-only effect, or another doubt; inactive = flat fitted curve, though single readings scatter.

>>> print(df.to_string())
                                   molecule             result
0  N#CC1=C(SCc2ccccc2)NC2=C(C(=O)CCC2)C1c1ccc2c(c1)OCO2 (stereo not given)  -5.66% (inactive)

Query: State, in one line, measured activity, negative = inhibition of CCOC(=O)NC1(C(F)(F)F)C(=O)NC(C)=C1C#N (stereo not given)
Result: 1.98% (inactive)

Query: Fill in reported activity, negative = inhibition for this entry: `CCOC(=O)c1nc2nc(C)c(Cl)c(=O)n2[nH]1`
Result: 5.64% (inactive)

Query: # return recorded activity, negative = inhibition for entry `Clc1ccccc1CN(Cc1ccccc1)c1ncnc2nc[nH]c12`
Result: -10.3% (inactive)

Query: Output measured activity, negative = inhibition for this item: CCOC(=O)C(OC(=O)c1sc(=S)n(C)c1C)C(C)=O (stereo not given)
Result: 9.46% (inactive)

Query: Identify the reported activity, negative = inhibition for the following entry. `COc1ccc(C(=O)Nc2cccnc2)cc1C(=O)Nc1cccnc1`
Result: -4.76% (inactive)

Query: Identify activity, negative = inhibition associated with the molecule `O=C(NCC(F)(F)F)Nc1nnc(C(F)(F)F)s1`
Result: -4.37% (inactive)

Query: Give the measured activity, negative = inhibition for `CCCCc1[nH]c(=O)c(C#N)c2c1CSC(C)(C)C2`
Result: 3.1% (inactive)

Query: Entry COc1ccc2c(c1OC)C(=O)N1c3ccccc3C(=O)N(c3ccccc3)C21 (stereo not given) needs its activity, negative = inhibition filled in; supply it.
Result: 0.163% (inactive)

Query: Look up activity, negative = inhibition of `CCCCCSc1nc(N2CCOCC2)c2c(c1C#N)CC(C)(C)OC2` and report it.
Result: 9.95% (inactive)

====

- System: CP269
- TEST: qHTS profiling for inhibitors of Plasmodium falciparum proliferation (AID 504749); note: nearly all actives have a fitted effect of over 60% in size
- ASSAY_CONDITIONS: P. falciparum in erythrocytes, SYBR Green DNA, 72 h; series mostly up to 28.7 µM
Inconclusive results are not listed. Calls of active or inactive are those of the source. Calls come from the whole dose curve; as a rule, active = well fitted inhibition curve with a large enough effect; inconclusive = small, poorly fitted or top-dose-only effect; inactive = flat fitted curve, though single readings scatter.
A correct response names exactly one class from label 1 (active), label 0 (inactive)

COMPOUND	CLASSIFICATION
C=CC1CN2CCC1CC2[C@@H](O)c1ccnc2ccc(OC)cc12 (some centres not stated)	label 1
CCN1CCN(C(=O)NC(C(=O)NC2C(=O)N3C(C(=O)O)=C(CSc4nnnn4C)CSC23)c2ccc(O)cc2)C(=O)C1=O (configuration not stated)	label 0
OCC1O[C@@H](O[C@@H]2C(CO)OC(O)C(O)C2O)C(O)C(O)C1O (some centres not stated)	label 0

Query: How was O=C(O)C(O)c1ccccc1 (configuration not stated) classified in this test?
Result: label 0

Query: Which outcome did this test record for the compound CCC(C(=O)O)C1OC(C(C)C(O)C(C)C(=O)C(CC)C2OC3(C=CC(O)C4(CCC(C)(C5CCC(O)(CC)C(C)O5)O4)O3)C(C)CC2C)C(C)CC1C (configuration not stated) ?
Result: label 1

Query: Lab log entry: `C=C(NCc1ccccc1)c1ccccc1O` — outcome as called in the assay?
Result: label 0

====

- Tested on: CP192
- TEST: qHTS profiling for inhibitors of Plasmodium falciparum proliferation (AID 504749); note: nearly all actives have a fitted effect of over 60% in size
- ASSAY_CONDITIONS: P. falciparum in erythrocytes, SYBR Green DNA, 72 h; series mostly up to 28.7 µM
Inconclusive results are not listed. Activity calls are given as the source filed them. Calls come from the whole dose curve; as a rule, active = well fitted inhibition curve with a large enough effect; inconclusive = small, poorly fitted or top-dose-only effect; inactive = flat fitted curve, though single readings scatter.
// allowed return values: 1 (yes) = active, 0 (no) = inactive

Below, 5 molecules whose answers are already recorded.
MOLECULE	CLASSIFICATION
OCCOC[C@H]1O[C@H](OCCO)[C@H](OCCO)[C@@H](OCCO)[C@@H]1OCCO (tested in a mixture with another compound)	0 (no)
CNC1C(O)C(OC2C(NC(=O)C(O)CN)CC(N)C(OC3OC(CN)C(O)C(O)C3O)C2O)OCC1(C)O (stereo not given)	0 (no)
CCN(CC)CCOCCOC(=O)C(CC)(CC)c1ccccc1 (tested in a mixture with another compound)	0 (no)
CN[C@H](C)CCC=C(C)C	1 (yes)
COC1CC2CCC(C)[C@](O)(O2)C(=O)C(=O)N2CCCCC2C(=O)OC(C(C)CC2CCC(O)C(OC)C2)CC(=O)C(C)/C=C(/C)C(O)C(OC)C(=O)C(C)CC(C)C=CC=C/C=C\1C (stereo not given in full)	1 (yes)

Query: Short answer needed: outcome of this test for CC1=C(C/C=C(\C)CCCC(C)CCCC(C)CCCC(C)C)C(=O)c2ccccc2C1=O (stereo not given) ?
Result: 0 (no)

Query: Per the records of this test, what outcome belongs to Cc1ccc(S(=O)(=O)NC(=O)NC(C)Cc2ccccc2)cc1 (stereo not given) ?
Result: 0 (no)

Query: Per the assay record, what outcome was assigned to CO/N=C(/C(=O)N[C@@H]1C(=O)N2C(C(=O)O)=C(CSC(=O)c3ccco3)CSC12)c1csc(N)n1 (stereo not given in full) ?
Result: 0 (no)

Query: How was COC(c1ccccc1)(c1ccccc1)C(Oc1nc(C)cc(C)n1)C(=O)O (stereo not given) classified in this test?
Result: 0 (no)

Query: In this assay, the call recorded for C[C@@H]1CC2C3CCC4=CC(=O)C=C[C@]4(C)[C@@]3(F)[C@@H](O)C[C@]2(C)[C@@]1(O)C(=O)COC(=O)c1cccc(S(=O)(=O)O)c1 (stereo not given in full) was what?
Result: 0 (no)

====

- System: CP203
- TEST: qHTS profiling for inhibitors of Plasmodium falciparum proliferation (AID 504749); note: nearly all actives have a fitted effect of over 60% in size; note: potency is the fitted concentration of half-maximal effect
- ASSAY_CONDITIONS: P. falciparum in erythrocytes, SYBR Green DNA, 72 h; series mostly up to 28.7 µM
Records with an inconclusive call do not appear. The source made the active and inactive calls. The call rests on the fitted dose curve; in most records, active means well fitted inhibition curve with a large enough effect; inconclusive means small, poorly fitted or top-dose-only effect; inactive means flat fitted curve, though single readings scatter.
ATTRIBUTE_MEASURED: Potency

Past entries and their recorded results:
COMPOUND	Potency
CCCCC(=O)OCC(=O)[C@]1(O)Cc2c(O)c3c(c(O)c2[C@H](OC2CC(NC(=O)C(F)(F)F)C(O)C(C)O2)C1)C(=O)c1c(OC)cccc1C3=O (some centres undefined)	1.69 µM (active)
CC[C@@H]1/C=C(\C)C[C@H](C)C[C@H](OC)[C@H]2O[C@@](O)(C(=O)C(=O)N3CCCC[C@H]3C(=O)O[C@H](/C(C)=C/[C@@H]3CC[C@H](Cl)[C@H](OC)C3)[C@H](C)[C@@H](O)CC1=O)[C@H](C)C[C@@H]2OC	inactive
CO/N=C(/C(=O)N[C@@H]1C(=O)N2C(C(=O)O)=C(CSc3nc(C)c(CC(=O)O)s3)CS[C@H]12)c1csc(N)n1	inactive
CC1OC(OC2C(O)CC(OC3C(O)CC(OC4CCC5(C)C(CCC6C5CCC5(C)C(C7=CC(=O)OC7)CCC65O)C4)OC3C)OC2C)CC(O)C1O (centres undefined)	inactive
CN(C)CC/C=C1\c2ccccc2COc2ccc(CC(=O)O)cc21	inactive

Continue with the next compound.
Query: Could you please provide reported Potency for COc1cccc2c1C(=O)c1c(O)c3c(c(O)c1C2=O)C[C@@](O)(C(=O)CO)C[C@@H]3OC1CC(N)C(O)C(C)O1 (some centres undefined) ? Thanks!
Result: 4.78 µM (active)
